Biological target: Glucocorticoid receptor (Homo sapiens)
Sequence (P04150 whole entry): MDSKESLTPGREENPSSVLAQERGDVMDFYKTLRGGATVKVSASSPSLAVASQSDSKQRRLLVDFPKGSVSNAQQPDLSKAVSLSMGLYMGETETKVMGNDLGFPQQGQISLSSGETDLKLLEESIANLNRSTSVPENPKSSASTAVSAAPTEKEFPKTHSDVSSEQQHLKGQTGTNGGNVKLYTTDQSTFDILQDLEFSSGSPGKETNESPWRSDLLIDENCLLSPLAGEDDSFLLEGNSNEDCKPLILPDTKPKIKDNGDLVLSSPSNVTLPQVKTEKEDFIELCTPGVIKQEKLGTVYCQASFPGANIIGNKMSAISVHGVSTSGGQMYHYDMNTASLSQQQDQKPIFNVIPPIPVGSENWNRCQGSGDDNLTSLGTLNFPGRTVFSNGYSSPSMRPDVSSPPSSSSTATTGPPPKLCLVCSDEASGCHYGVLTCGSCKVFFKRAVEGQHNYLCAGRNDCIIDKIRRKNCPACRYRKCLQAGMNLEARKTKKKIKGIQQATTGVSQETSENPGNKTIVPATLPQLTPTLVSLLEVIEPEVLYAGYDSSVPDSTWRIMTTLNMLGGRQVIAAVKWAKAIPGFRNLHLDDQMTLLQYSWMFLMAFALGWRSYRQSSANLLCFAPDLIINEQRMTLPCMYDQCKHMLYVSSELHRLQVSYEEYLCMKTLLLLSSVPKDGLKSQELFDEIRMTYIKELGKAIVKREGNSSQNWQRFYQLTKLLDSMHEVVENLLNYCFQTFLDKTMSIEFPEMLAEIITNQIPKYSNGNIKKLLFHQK
Test: Antagonist activity at GR in human PBMC assessed as reduction in dexamethasone-induced FKBP5 gene expression incubated for 6 hrs by RT-qPCR method
Format: cell-based
pIC50: −log10 of the molar value.

# givenSmiles, pIC50
data = [
    ("CC(C)N(C)c1ccc([C@H]2C[C@@]3(C)[C@@H](CC[C@@]3(O)C#CC(C)(C)C)[C@@H]3CCC4=CC(=O)CC[C@@H]4[C@H]32)cc1", 7.71),
]

----------
molecular target: UniProt:P06401; assay: Antagonist activity at human PR expressed in CHO-K1 cells assessed as reduction in progesterone-induced response incubated for 20 hrs by luciferase reporter gene assay
Sequence (P06401 whole entry): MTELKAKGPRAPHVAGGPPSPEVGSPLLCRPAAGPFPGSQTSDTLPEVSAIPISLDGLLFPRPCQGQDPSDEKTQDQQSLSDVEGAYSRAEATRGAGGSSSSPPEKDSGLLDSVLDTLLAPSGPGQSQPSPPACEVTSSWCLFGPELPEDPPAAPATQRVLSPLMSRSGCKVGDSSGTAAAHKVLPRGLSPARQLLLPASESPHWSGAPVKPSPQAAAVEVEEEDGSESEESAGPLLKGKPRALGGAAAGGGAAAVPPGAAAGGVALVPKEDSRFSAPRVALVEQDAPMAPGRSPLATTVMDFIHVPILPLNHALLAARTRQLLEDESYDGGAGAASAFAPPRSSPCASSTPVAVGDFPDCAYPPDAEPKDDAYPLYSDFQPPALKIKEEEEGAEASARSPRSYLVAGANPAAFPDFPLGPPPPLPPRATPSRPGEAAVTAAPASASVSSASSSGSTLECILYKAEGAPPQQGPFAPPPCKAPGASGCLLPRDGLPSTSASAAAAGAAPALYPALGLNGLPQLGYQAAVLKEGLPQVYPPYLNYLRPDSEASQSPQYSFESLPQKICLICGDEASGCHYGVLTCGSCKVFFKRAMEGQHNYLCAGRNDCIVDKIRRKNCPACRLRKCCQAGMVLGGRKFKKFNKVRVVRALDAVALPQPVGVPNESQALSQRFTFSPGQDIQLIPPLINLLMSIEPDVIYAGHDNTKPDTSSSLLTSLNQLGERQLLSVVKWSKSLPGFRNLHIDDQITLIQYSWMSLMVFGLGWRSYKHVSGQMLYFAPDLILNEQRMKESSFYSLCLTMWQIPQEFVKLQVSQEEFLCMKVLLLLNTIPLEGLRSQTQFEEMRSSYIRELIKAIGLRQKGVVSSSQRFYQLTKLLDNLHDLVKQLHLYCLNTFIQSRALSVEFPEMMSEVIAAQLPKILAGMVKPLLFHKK
quantityName: IC50 (nM)

# givenSmiles, quantityName, assayResult
data = [
    ("CC(C)N(C)c1ccc([C@H]2C[C@@]3(C)[C@@H](CC[C@@]3(O)C#CC(C)(C)C)[C@@H]3CCC4=CC(=O)CC[C@@H]4[C@H]32)cc1", "IC50", 21),
]

----------
Attribute: Emax at 20 h
target: UniProt:P04150; assay: Agonist activity at human GR expressed in CHO-K1 cells incubated for 20 hrs by luciferase reporter gene assay relative to dexamethasone; assay type: cell-based; conditions: CHO-K1 cells expressing human GR

# givenSmiles, Emax at 20 h
records = [
    ("CC(C)(C)C#C[C@]1(O)CC[C@H]2[C@@H]3CCC4=CC(=O)CCC4=C3[C@@H](c3ccc(N4CCCC4)cc3)C[C@@]21C", "1.2%"),
    ("Cc1ccc([C@H]2C[C@@]3(C)[C@@H](CC[C@@]3(O)C#CC(C)(C)C)[C@@H]3CCC4=CC(=O)CCC4=C32)cc1", "1.5%"),
    ("Cc1cc([C@H]2C[C@@]3(C)[C@@H](CC[C@@]3(O)C#CC(C)(C)C)[C@@H]3CCC4=CC(=O)CCC4=C32)ccc1N(C)C", "1.2%"),
    ("CN(C)c1ccc([C@H]2C[C@@]3(C)[C@@H](CC[C@@]3(O)C#CC(C)(C)C)[C@@H]3CCC4=CC(=O)CCC4=C32)cc1", "1.4%"),
    ("CN(C)c1cccc([C@H]2C[C@@]3(C)[C@@H](CC[C@@]3(O)C#CC(C)(C)C)[C@@H]3CCC4=CC(=O)CCC4=C32)c1", "1.3%"),
    ("CC#C[C@]1(O)CC[C@H]2[C@@H]3CCC4=CC(=O)CCC4=C3[C@@H](CC)C[C@@]21C", "36%"),
    ("CN(C)c1cc(F)c([C@H]2C[C@@]3(C)[C@@H](CC[C@@]3(O)C#CC(C)(C)C)[C@@H]3CCC4=CC(=O)CCC4=C32)c(F)c1", "1.3%"),
    ("CC(C)(C)C#C[C@]1(O)CC[C@H]2[C@@H]3CCC4=CC(=O)CCC4=C3[C@@H](c3ccc(C4(C)COC4)cc3)C[C@@]21C", "2.2%"),
    ("COC(C)(C)C#C[C@]1(O)CC[C@H]2[C@@H]3CCC4=CC(=O)CC[C@@H]4[C@H]3[C@@H](c3ccc(N(C)C)cc3)C[C@@]21C", "1.7%"),
    ("CC(C)C#C[C@]1(O)CC[C@H]2[C@@H]3CCC4=CC(=O)CCC4=C3[C@@H](c3ccc(N(C)C)cc3)C[C@@]21C", "1.8%"),
    ("CC(C)c1ccc([C@H]2C[C@@]3(C)[C@@H](CC[C@@]3(O)C#CC(C)(C)C)[C@@H]3CCC4=CC(=O)CCC4=C32)cc1", "1.5%"),
    ("CN(C)c1ccc([C@H]2C[C@@]3(C)[C@@H](CC[C@@]3(O)C#CC(C)(C)C)[C@@H]3CCC4=CC(=O)CC[C@@H]4[C@H]32)cc1", "2.2%"),
    ("CN(C)c1ccc([C@H]2C[C@@]3(C)[C@@H](CC[C@@]3(O)C#CC(F)(F)F)[C@@H]3CCC4=CC(=O)CCC4=C32)cc1", "2.4%"),
    ("CC(C)(C)C#C[C@]1(O)CC[C@H]2[C@@H]3CCC4=CC(=O)CCC4=C3[C@@H](c3ccc(N4CCS(=O)(=O)CC4)cc3)C[C@@]21C", "1.8%"),
    ("CC#C[C@]1(O)CC[C@H]2[C@@H]3CCC4=CC(=O)CCC4=C3[C@@H](c3ccccc3)C[C@@]21C", "7%"),
    ("COc1cc([C@H]2C[C@@]3(C)[C@@H](CC[C@@]3(O)C#CC(C)(C)C)[C@@H]3CCC4=CC(=O)CCC4=C32)ccc1N(C)C", "1%"),
    ("CCC#C[C@]1(O)CC[C@H]2[C@@H]3CCC4=CC(=O)CCC4=C3[C@@H](c3ccc(N(C)C)cc3)C[C@@]21C", "2.1%"),
    ("COc1ccc([C@H]2C[C@@]3(C)[C@@H](CC[C@@]3(O)C#CC(C)(C)C)[C@@H]3CCC4=CC(=O)CCC4=C32)cc1", "1.1%"),
    ("CC(C)N(C)c1ccc([C@H]2C[C@@]3(C)[C@@H](CC[C@@]3(O)C#CC(C)(C)C)[C@@H]3CCC4=CC(=O)CCC4=C32)cc1", "1.7%"),
    ("CCc1ccc([C@H]2C[C@@]3(C)[C@@H](CC[C@@]3(O)C#CC(C)(C)C)[C@@H]3CCC4=CC(=O)CCC4=C32)cc1", "1.5%"),
]
